tested.system: HLA B*5301 (Homo sapiens, UniProt P01889, A329T/A93T/A95T/C349S/D201E/D98Y/E176V/E187L/E204Q/E69T/G107R/I218V/K202T/L105A/L119I/N104I/Q94N/R106L/R155S/R180L/S101N/S121R/S35A/S48A/T118I/V127L/V306I/V36M/Y140S/Y91F)
Format: binding
Entries whose Normalized average relative binding affinity (ARB), HLA B*5301 is below 0.06 take Fulfilled; entries at or above 0.06 take Not fulfilled.

Task: Determine whether this sequence shows Normalized average relative binding affinity (ARB), HLA B*5301 lower than 0.06 (ties excluded): XXMXXXXXX [3064.0051]
Output: Not fulfilled

Task: Determine whether this sequence shows Normalized average relative binding affinity (ARB), HLA B*5301 lower than 0.06 (ties excluded): XYXXXXXXX [3064.0040]
Output: Fulfilled

Task: Determine whether this sequence shows Normalized average relative binding affinity (ARB), HLA B*5301 lower than 0.06 (ties excluded): HXXXXXXXX [3064.0007]
Output: Not fulfilled

Task: Determine whether this sequence shows Normalized average relative binding affinity (ARB), HLA B*5301 lower than 0.06 (ties excluded): XXWXXXXXX [3064.0059]
Output: Not fulfilled

Task: Determine whether this sequence shows Normalized average relative binding affinity (ARB), HLA B*5301 lower than 0.06 (ties excluded): YXXXXXXXX [3064.0020]
Output: Not fulfilled

Task: Determine whether this sequence shows Normalized average relative binding affinity (ARB), HLA B*5301 lower than 0.06 (ties excluded): XNXXXXXXX [3064.0032]
Output: Fulfilled

Task: Determine whether this sequence shows Normalized average relative binding affinity (ARB), HLA B*5301 lower than 0.06 (ties excluded): AXXXXXXXX [3064.0001]
Output: Fulfilled

Task: Determine whether this sequence shows Normalized average relative binding affinity (ARB), HLA B*5301 lower than 0.06 (ties excluded): XDXXXXXXX [3064.0023]
Output: Fulfilled

Task: Determine whether this sequence shows Normalized average relative binding affinity (ARB), HLA B*5301 lower than 0.06 (ties excluded): IXXXXXXXX [3064.0008]
Output: Not fulfilled

Task: Determine whether this sequence shows Normalized average relative binding affinity (ARB), HLA B*5301 lower than 0.06 (ties excluded): EXXXXXXXX [3064.0004]
Output: Fulfilled

Task: Determine whether this sequence shows Normalized average relative binding affinity (ARB), HLA B*5301 lower than 0.06 (ties excluded): SXXXXXXXX [3064.0016]
Output: Fulfilled

Task: Determine whether this sequence shows Normalized average relative binding affinity (ARB), HLA B*5301 lower than 0.06 (ties excluded): XAXXXXXXX [3064.0021]
Output: Not fulfilled

Task: Determine whether this sequence shows Normalized average relative binding affinity (ARB), HLA B*5301 lower than 0.06 (ties excluded): XXNXXXXXX [3064.0052]
Output: Not fulfilled

Task: Determine whether this sequence shows Normalized average relative binding affinity (ARB), HLA B*5301 lower than 0.06 (ties excluded): XQXXXXXXX [3064.0034]
Output: Fulfilled

Task: Determine whether this sequence shows Normalized average relative binding affinity (ARB), HLA B*5301 lower than 0.06 (ties excluded): XKXXXXXXX [3064.0029]
Output: Fulfilled

Task: Determine whether this sequence shows Normalized average relative binding affinity (ARB), HLA B*5301 lower than 0.06 (ties excluded): GXXXXXXXX [3064.0006]
Output: Fulfilled
